Tested on: MOLM14 cells
Assay details: Proliferation assay, spheroid-like growth, MOLM14 (MLL-AF9 rearranged)
Type: cell-based, human
Measurement setup: Homo sapiens, MOLM-14, 192 h, 8 days, confluence as measure of spheroid size, read-out: spheroid assay_OneTime MOLM14 IC50
pIC50: −log10 of the molar value.
Outcome measure: pIC50

Molecule	Outcome measure	Result value
CC(=O)N1CC2(C1)CN([C@H]1C[C@H]([C@@H](C(C)C)N3CC4(CCN(c5ncnnc5Oc5ccc(F)cc5-c5cncnc5C5CC5)C4)C3)C1)C2 (single isomer, unassigned) [Compound 171]	pIC50	7.51
CC(C)[C@@H]([C@H]1C[C@@H](N2CC3(CCO3)C2)C1)N1CC2(CCN(c3ncnnc3Oc3ccc(F)cc3-c3ncncc3C3CC3)C2)C1 (single isomer, unassigned) [Compound 101]	pIC50	8.00
CC(C)[C@H]([C@H]1C[C@@H](NC(=O)C2CC2)C1)N1CC2(CCN(c3ncnnc3Oc3ccc(F)cc3-c3cccc(=O)n3C3CC3)C2)C1 (single isomer, unassigned) [Compound 190]	pIC50	7.12

----------
Recorded measurements of IC50, one per entry
Test system: MOLM14 cells
Assay details: Proliferation assay, spheroid-like growth, MOLM14 (MLL-AF9 rearranged)
Type: cell-based, human
Measurement setup: Homo sapiens, MOLM-14, 192 h, 8 days, confluence as measure of spheroid size, read-out: spheroid assay_OneTime MOLM14 IC50

Compound	Measurement unit	Readout qualifier	IC50
CC(C)[C@@H]([C@H]1C[C@@H](N2CCC(C(=O)N(C)C)CC2)C1)N1CC2(CCN(c3ncnnc3Oc3ccc(F)cc3-c3ncncc3C3CC3)C2)C1 (single isomer, unassigned)	nM	=	33
CC(=O)N[C@H]1C[C@@H](C(C(C)C)N2CC3(CCN(c4ncnnc4Oc4ccc(F)cc4-c4c[nH]c(=O)nc4C4CC4)C3)C2)C1 (stereo partly shown)	nM	>	940
Cc1ncc(-c2cc(F)ccc2Oc2nncnc2N2CCC3(C2)CN([C@@H](C(C)C)[C@H]2C[C@@H](N4CCC5(COC5)C4)C2)C3)c(C2CC2)n1	nM	=	7
CC(C)[C@H](C1CN(CC2COC2)C1)N1CC2(CCN(c3ncnnc3Oc3ccc(F)cc3-c3cncnc3C3CC3)C2)C1 (single isomer, unassigned)	nM	=	2430
CC(C)C([C@H]1C[C@@H](N2CC3(COC3)C2)C1)N1CC2(CCN(c3ncnnc3Oc3ccc(F)cc3-c3cncnc3C3CC3)C2)C1 (single isomer, unassigned)	nM	=	5
CC(C)[C@H]([C@H]1C[C@@H](Nc2cnc3nn[nH]c3c2)C1)N1CC2(CCN(c3ncnnc3Oc3ccc(F)cc3-c3cncnc3C3CC3)C2)C1 (single isomer, unassigned)	nM	=	79
CC(C)[C@@H]([C@H]1C[C@@H](N2CC[C@@H](S(C)(=O)=O)C2)C1)N1CC2(CCN(c3ncnnc3Oc3ccc(F)cc3-c3ncccc3C3CC3)C2)C1 (single isomer, unassigned)	nM	>	940
O=c1cc(C2CC2)c(-c2cc(F)ccc2Oc2nncnc2N2CCC3(C2)CN([C@@H](C2CCN(CC4COC4)CC2)C24CC(C2)C4)C3)n[nH]1 (single isomer, unassigned)	nM	>	940
CC(C)[C@@H]([C@H]1C[C@@H](N2C[C@H]3C[C@@H]2CO3)C1)N1CC2(CCN(c3ncnnc3Oc3ccc(F)cc3-c3cccnc3C3CC3)C2)C1 (single isomer, unassigned)	nM	=	5
COC1CCN([C@H]2C[C@@H](C(C(C)C)N3CC4(CCN(c5ncnnc5Oc5ccc(F)cc5-c5cncnc5C5CC5)C4)C3)C2)CC1 (stereo partly shown) [Compound 124]	nM	=	12
CC(C)[C@@H]([C@H]1C[C@@H](N2CC3(CCCO3)C2)C1)N1CC2(CCN(c3ncnnc3Oc3ccc(F)cc3-c3nnccc3C3CC3)C2)C1 (single isomer, unassigned)	nM	=	11
CC(C)[C@H]([C@H]1C[C@@H](NC2(C)CCS(=O)(=O)CC2)C1)N1CC2(CCN(c3ncnnc3Oc3ccc(F)cc3-c3cncnc3C3CC3)C2)C1 (single isomer, unassigned)	nM	=	27
CC(C)[C@H]([C@H]1C[C@H](N2CC(O)C3(CCC3)C2)C1)N1CC2(CCN(c3ncnnc3Oc3ccc(F)cc3-c3cncnc3C3CC3)C2)C1 (mixture of isomers)	nM	=	41

----------
System: MOLM14 cells
Assay details: Proliferation assay, spheroid-like growth, MOLM14 (MLL-AF9 rearranged)
Assay type: cell-based, human
Measurement setup: Homo sapiens, MOLM-14, 192 h, 8 days, confluence as measure of spheroid size, read-out: spheroid assay_OneTime MOLM14 IC50
Description: The anti-proliferative effect of menin/MLL protein/protein interaction inhibitor test compounds was assessed in human leukemia cell lines. […] In order to assess the anti-proliferative effects, 200 MOLM14 cells, or 300 KO-52 cells were seeded in 200 μl media per well in 96-well round bottom, ultra-low attachment plates (Costar, catalogue number 7007). […] Spheroid like growth was measured in real-time by live-cell imaging (IncuCyteZOOM, Essenbio, 4× objective) acquiring images at day 8. […]
pIC50: −log10 of the molar value.
Recorded measurements of pIC50, one per entry
Outcome measure: pIC50

Compound	Outcome measure	Readout qualifier	Result value
CS(=O)(=O)C1CCN([C@H]2C[C@@H]([C@@H](N3CC4(CCN(c5ncnnc5Oc5ccc(F)cc5-c5cncnc5C5CC5)C4)C3)C34CC(C3)C4)C2)CC1 (single isomer, unassigned)	pIC50	<	6.03
CC(C)[C@H]([C@H]1C[C@H](N2CC[C@H](C(C)(C)O)C2)C1)N1CC2(CCN(c3ncnnc3Oc3ccc(F)cc3-c3cncnc3C3CC3)C2)C1 (single isomer, unassigned)	pIC50	=	7.41
CC(C)[C@@H]([C@H]1C[C@@H](N2CC[C@](C)(O)C2)C1)N1CC2(CCN(c3ncnnc3Oc3ccc(F)cc3-c3ncncc3C3CC3)C2)C1 (single isomer, unassigned)	pIC50	=	8.70
CC(C)C([C@H]1C[C@@H](Nc2ccnc(N)n2)C1)N1CC2(CCN(c3ncnnc3Oc3ccc(F)cc3-c3cncnc3C3CC3)C2)C1 (stereo partly drawn)	pIC50	=	8.54
CNC(=O)c1nnc(N[C@H]2C[C@@H]([C@@H](C(C)C)N3CC4(CCN(c5ncnnc5Oc5ccc(F)cc5-c5cncnc5C5CC5)C4)C3)C2)s1 (single isomer, unassigned)	pIC50	=	8.40
CC(C)[C@@H]([C@H]1C[C@H](N2C[C@H]3COC[C@H]3C2)C1)N1CC2(CCN(c3ncnnc3Oc3ccc(F)cc3-c3cncnc3C3CC3)C2)C1 (single isomer, unassigned)	pIC50	=	6.34
CC(C)[C@H]([C@H]1C[C@@H](N2C[C@@H]3[C@H](C2)[C@H]3C(=O)N(C)C)C1)N1CC2(CCN(c3ncnnc3Oc3ccc(F)cc3-c3cncnc3C3CC3)C2)C1 (single isomer, unassigned)	pIC50	=	8.40
CC(C)[C@H](C1CCN(C[C@H]2C[C@@H](O)C2)CC1)N1CC2(CCN(c3ncnnc3Oc3ccc(F)cc3-c3cncnc3C3CC3)C2)C1 (single isomer, unassigned)	pIC50	=	7.35
CC(C)[C@@H](C1CC(C)(O)C1)N1CC2(CCN(c3ncnnc3Oc3ccc(F)cc3-c3cncnc3C3CC3)C2)C1 (single isomer, unassigned)	pIC50	<	5.43
CC(C)[C@H]([C@H]1C[C@@H](N2C[C@H]3COC[C@H]3C2)C1)N1CC2(CCN(c3ncnnc3Oc3ccc(F)cc3-c3cnc(C#N)nc3C3CC3)C2)C1	pIC50	>	8.70
COc1ncc(-c2cc(F)ccc2Oc2nncnc2N2CCC3(C2)CN(C(C(C)C)[C@H]2C[C@@H](NC(C)=O)C2)C3)c(C2CC2)n1 (stereo partly drawn)	pIC50	=	7.46
CC(C)[C@H]([C@H]1C[C@@H](N2C[C@H]3C[C@@H]2CO3)C1)N1CC2(CCN(c3ncnnc3Oc3ccc(F)cc3-c3cncnc3C3CC3)C2)C1 (single isomer, unassigned)	pIC50	=	8.05

----------
Recorded measurements of IC50, one per entry
Tested on: MOLM14 cells
Assay details: Proliferation assay, spheroid-like growth, MOLM14 (MLL-AF9 rearranged)
Format: cell-based, human
Measurement setup: Homo sapiens, MOLM-14, 192 h, 8 days, confluence as measure of spheroid size, read-out: spheroid assay_OneTime MOLM14 IC50

Compound	Measurement unit	Readout qualifier	IC50
CC(C)[C@H]([C@H]1C[C@@H](N2CCC(C(=O)N(C)C)C2)C1)N1CC2(CCN(c3ncnnc3Oc3ccc(F)cc3-c3cncnc3C3CC3)C2)C1 (mixture of isomers)	nM	=	5
CC(C)[C@H]([C@H]1C[C@@H](N2CC(C(=O)N(C)C)C2)C1)N1CC2(CCN(c3ncnnc3Oc3ccc(F)cc3-c3cncnc3C3CC3)C2)C1 (single isomer, unassigned)	nM	=	580
CC(C)C([C@H]1C[C@@H](N2CC(O)C2)C1)N1CC2(CCN(c3ncnnc3Oc3ccc(F)cc3-c3cncnc3C3CC3)C2)C1 (stereo partly shown)	nM	=	12
CC(C)[C@@H]([C@H]1C[C@@H](N2CCC(S(C)(=O)=O)CC2)C1)N1CC2(CCN(c3ncnnc3Oc3ccc(F)cc3-c3ncccc3C3CC3)C2)C1 (single isomer, unassigned)	nM	>	940
